Target: bovine cardiac myofibrils (full-length cardiac myosin ATPase in the native sarcomere) (Bos taurus (Bovine))
Assay: Skinned bovine cardiac myofibril ATPase assay (PK/LDH-coupled)
Conditions: Ca2+ activating to 75% of maximal rate, read-out: CDMF75 IC50
value-kind: IC50 (µM)

See these solved cases before continuing.
[[record]]
compound = "O=C(N[C@@H]1COc2cc(-c3noc(C(F)F)n3)ccc21)c1cccc(CO)c1"
unit_info = "µM"
val = 1.1

[[record]]
compound = "CCc1nc(-c2ccc3c(c2)CC[C@H]3NC(=O)c2conc2C)no1"
unit_info = "µM"
val = 0.8

[[record]]
compound = "COC(=O)N[C@@H]1CCc2cc(-c3noc(C)n3)ccc21"
unit_info = "µM"
val = 2.7

[[record]]
compound = "Cc1nc(-c2ccc3c(c2)CCC3NC(=O)c2ccnn2C)no1 (centres unmarked)"
unit_info = "µM"
val = 3

[[record]]
compound = "CCc1nc(-c2ccc3c(c2)OC[C@H]3NC(=O)c2cnn(C)c2)no1"
unit_info = "µM"
val = 1


P. [2H]C([2H])([2H])c1nc(-c2ccc3c(c2)CC[C@H]3NC(=O)c2ccc(=O)n(C)c2)no1
Q. Cn1nccc1C(=O)N[C@@H]1CCc2cc(-c3nc(C(F)F)no3)ccc21
[in] // which entry has the larger IC50 value, P or Q ? Answer by quoting the chosen item's label.
[out] P

a. Cc1noc(-c2ccc3c(c2)CC[C@H]3NC(=O)c2cnn(C)c2C)n1
b. Cc1cncc(-c2ccc3c(c2)CC[C@H]3NC(=O)c2ccnn2C)c1
c. Cn1cc(C(=O)N[C@@H]2CCc3cc(-c4nc(C(F)F)no4)ccc32)cn1
d. Cc1ncoc1C(=O)N[C@@H]1CCc2cc(-c3noc(C(F)F)n3)ccc21
[in] # sort list by recorded IC50, greatest to least Put the labels in the order asked and list them.
[out] b, c, a, d
(b: 18.5 µM, c: 10.1 µM, a: 6.6 µM, d: 0.9 µM)

----------
Biological target: bovine cardiac myofibrils (full-length cardiac myosin ATPase in the native sarcomere) (Bos taurus (Bovine), UniProt Q9BE39)
Sequence (Q9BE39 whole entry): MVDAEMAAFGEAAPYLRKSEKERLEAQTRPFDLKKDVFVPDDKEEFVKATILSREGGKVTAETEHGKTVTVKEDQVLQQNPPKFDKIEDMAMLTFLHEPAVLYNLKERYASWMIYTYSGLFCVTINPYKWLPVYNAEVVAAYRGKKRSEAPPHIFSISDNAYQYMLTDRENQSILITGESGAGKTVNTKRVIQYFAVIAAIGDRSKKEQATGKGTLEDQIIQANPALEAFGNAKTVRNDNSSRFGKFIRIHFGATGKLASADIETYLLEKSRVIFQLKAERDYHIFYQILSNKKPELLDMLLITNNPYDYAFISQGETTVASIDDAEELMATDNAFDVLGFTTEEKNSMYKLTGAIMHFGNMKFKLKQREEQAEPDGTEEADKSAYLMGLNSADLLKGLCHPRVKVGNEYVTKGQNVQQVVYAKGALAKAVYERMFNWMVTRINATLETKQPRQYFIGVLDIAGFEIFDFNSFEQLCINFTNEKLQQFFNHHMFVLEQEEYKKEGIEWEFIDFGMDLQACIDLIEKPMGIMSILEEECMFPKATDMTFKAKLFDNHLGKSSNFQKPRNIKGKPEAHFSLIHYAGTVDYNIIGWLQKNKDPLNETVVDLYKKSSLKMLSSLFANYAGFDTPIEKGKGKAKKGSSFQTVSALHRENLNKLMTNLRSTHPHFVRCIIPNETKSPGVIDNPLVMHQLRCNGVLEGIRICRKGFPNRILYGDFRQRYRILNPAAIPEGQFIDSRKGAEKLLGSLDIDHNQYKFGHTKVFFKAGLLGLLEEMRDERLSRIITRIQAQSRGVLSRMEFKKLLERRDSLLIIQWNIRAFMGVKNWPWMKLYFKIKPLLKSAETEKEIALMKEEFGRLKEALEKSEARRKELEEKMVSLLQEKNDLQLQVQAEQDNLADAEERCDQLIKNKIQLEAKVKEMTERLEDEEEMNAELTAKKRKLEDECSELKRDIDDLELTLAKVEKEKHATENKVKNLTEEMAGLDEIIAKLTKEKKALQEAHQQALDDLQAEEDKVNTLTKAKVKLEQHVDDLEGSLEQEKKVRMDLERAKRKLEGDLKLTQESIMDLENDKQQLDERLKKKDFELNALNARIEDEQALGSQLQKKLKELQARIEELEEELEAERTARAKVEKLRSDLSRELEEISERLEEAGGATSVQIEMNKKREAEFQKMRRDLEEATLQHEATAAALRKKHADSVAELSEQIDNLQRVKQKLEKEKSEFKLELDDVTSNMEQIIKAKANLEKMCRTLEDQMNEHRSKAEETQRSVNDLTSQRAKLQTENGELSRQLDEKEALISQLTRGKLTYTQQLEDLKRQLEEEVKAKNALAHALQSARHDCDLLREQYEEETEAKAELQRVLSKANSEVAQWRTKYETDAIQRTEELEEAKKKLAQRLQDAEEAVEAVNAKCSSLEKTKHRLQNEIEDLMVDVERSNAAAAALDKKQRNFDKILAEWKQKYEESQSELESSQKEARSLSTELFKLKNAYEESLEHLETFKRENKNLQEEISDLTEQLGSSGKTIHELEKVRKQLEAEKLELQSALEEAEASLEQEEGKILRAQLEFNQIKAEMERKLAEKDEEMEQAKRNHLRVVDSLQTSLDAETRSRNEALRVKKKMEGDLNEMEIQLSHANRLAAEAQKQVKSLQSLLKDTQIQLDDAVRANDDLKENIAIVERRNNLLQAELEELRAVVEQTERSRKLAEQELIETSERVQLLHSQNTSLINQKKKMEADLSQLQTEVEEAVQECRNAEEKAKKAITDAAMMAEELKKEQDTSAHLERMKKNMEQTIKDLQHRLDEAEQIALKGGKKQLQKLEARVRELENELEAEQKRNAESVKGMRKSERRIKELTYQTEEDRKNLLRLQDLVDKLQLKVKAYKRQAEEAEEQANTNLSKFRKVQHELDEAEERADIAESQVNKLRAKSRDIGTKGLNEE
Sequence (P85100 whole entry partner): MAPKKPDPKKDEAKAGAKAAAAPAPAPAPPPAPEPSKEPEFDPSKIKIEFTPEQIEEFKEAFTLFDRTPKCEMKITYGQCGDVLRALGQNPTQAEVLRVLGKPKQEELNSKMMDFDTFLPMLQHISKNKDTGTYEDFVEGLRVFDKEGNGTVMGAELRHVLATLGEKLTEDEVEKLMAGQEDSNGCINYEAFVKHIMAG
Sequence (Q3SZE5 whole entry partner): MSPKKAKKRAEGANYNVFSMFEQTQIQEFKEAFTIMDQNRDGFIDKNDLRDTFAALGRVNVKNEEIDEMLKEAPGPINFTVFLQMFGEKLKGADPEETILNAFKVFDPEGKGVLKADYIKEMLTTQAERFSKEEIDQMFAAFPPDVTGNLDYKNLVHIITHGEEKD
Assay: Skinned bovine cardiac myofibril ATPase assay (PK/LDH-coupled)
Conditions: Ca2+ activating to 75% of maximal rate, read-out: CDMF75 IC50
pIC50: −log10 of the molar value.
value-kind: pIC50

See these solved cases before continuing.
[[record]]
compound = "CCc1nc(-c2ccc3c(c2)CC[C@H]3NC(=O)c2ncc(C)s2)no1"
val = 5.68

[[record]]
compound = "CCc1nc(-c2ccc3c(c2)CC[C@H]3NC(=O)c2cnn(CCCOC)c2C)no1"
val = 4.80


a. COCc1nc(-c2ccc3c(c2)CC[C@H]3NC(=O)c2conc2C)no1
b. CCc1nc(-c2ccc3c(c2)CC[C@H]3NC(=O)c2ccn(CCOC)n2)no1
c. CCc1nc(-c2ccc3c(c2)CCC3C(=O)Nc2ccnc(C)c2)no1 (centres unmarked)
[in] # sort list by recorded pIC50, greatest to least Put the labels in the order asked and list them.
[out] a, c, b
(a: 5.68, c: 5.17, b: 4.77)

----------
Molecular target: bovine cardiac myofibrils (full-length cardiac myosin ATPase in the native sarcomere) (Bos taurus (Bovine), UniProt Q9BE39)
Assay: Skinned bovine cardiac myofibril ATPase assay (PK/LDH-coupled)
Type: biochemical
Conditions: Ca2+ activating to 75% of maximal rate, concentration giving 15% inhibition
value-kind: CDMF75 IC15 (nM)

a. Cc1cc(C(=O)N[C@@H]2CCc3cc(-c4nc(C)no4)ccc32)cnn1
b. CC(C)c1nc(-c2ccc3c(c2)CC[C@H]3NC(=O)c2nnn(Cc3ccccc3)n2)no1
[in] // which entry reports the smaller CDMF75 IC15, a or b ? Answer by quoting the chosen item's label.
[out] b

I. CCc1nc(-c2ccc3c(c2)CC[C@H]3NC(=O)c2cnn(C[C@@H](C)O)c2)no1
II. CCc1nc(-c2ccc3c(c2)CC[C@H]3NC(=O)OCC(F)F)no1
III. CCc1cc(-c2ccc3c(c2)CC[C@H]3NC(=O)c2cnc(C)o2)no1
IV. CCc1nc(-c2ccc3c(c2)CC[C@H]3NC(=O)Cc2ccccc2)no1
[in] # sort list by recorded CDMF75 IC15, greatest to least Put the labels in the order asked and list them.
[out] IV, I, III, II

1. CCc1nc(-c2ccc3c(c2)OC[C@H]3NC(=O)c2cc(C)no2)no1
2. Cc1c(C(=O)N[C@@H]2CCc3cc(-c4nc(C5CC5)no4)ccc32)cnn1C
[in] // which entry reports the smaller CDMF75 IC15, 1 or 2 ? Answer by quoting the chosen item's label.
[out] 1

P. Cc1nc(-c2ccc3c(c2)CCC3NC(=O)c2ocnc2C)no1 (stereo not shown)
Q. CCc1nc(-c2ccc3c(c2)CC[C@H]3NC(=O)c2cc(O)no2)no1
R. CC(=O)N[C@@H]1CCc2cc(-c3noc(C)n3)ccc21
[in] Rank the items in ascending order with respect to CDMF75 IC15. Put the labels in the order asked and list them.
[out] Q, P, R
(Q: 500 nM, P: 1200 nM, R: 3200 nM)

a. Cn1nccc1C(=O)N[C@@H]1CCc2cc(-c3noc(C4CCO4)n3)ccc21 (stereo partly shown)
b. CCc1nc(-c2ccc3c(c2)CC[C@H]3NC(=O)c2cccc(C(C)O)c2)no1 (stereo partly shown)
c. CCc1nc(-c2ccc3c(c2)CC[C@H]3NC(=O)c2cnoc2C)no1
d. Cc1nn(C)cc1C(=O)NC1CCc2cc(-c3noc(CO)n3)ccc21 (stereo not shown)
[in] # sort list by recorded CDMF75 IC15, greatest to least Put the labels in the order asked and list them.
[out] d, a, b, c
(d: 4600 nM, a: 1100 nM, b: 400 nM, c: 200 nM)

P. Cc1c(C(=O)NC2COc3cc(-c4noc(C(F)F)n4)ccc32)cnn1C (stereo not shown)
Q. Cc1nc(-c2ccc3c(c2)OC[C@H]3NC(=O)c2cccc(CO)c2)no1
[in] // which entry reports the smaller CDMF75 IC15, P or Q ? Answer by quoting the chosen item's label.
[out] Q

I. CCc1nc(-c2ccc3c(c2)CC[C@H]3NC(=O)c2ccn(CCO)c(=O)c2)no1
II. CCc1nc(-c2ccc3c(c2)CC[C@H]3NC(=O)c2cccc(C=O)c2)no1
[in] // which entry reports the smaller CDMF75 IC15, I or II ? Answer by quoting the chosen item's label.
[out] II

A. Cn1cc(C(=O)N[C@@H]2CCc3cc(-c4noc(C5CC5)n4)ccc32)cn1
B. COC(=O)N[C@@H]1CCc2cc(-c3noc(C4CC4)n3)ccc21
[in] // which entry has the larger CDMF75 IC15 value, A or B ? Answer by quoting the chosen item's label.
[out] A
